biological target: human NHE-1 (Homo sapiens, UniProt P19634); assay: FLIPR assay for NHE-1 inhibition by measurement of the recovery in pHi in transfected cell lines; settings: transfected LAP-1 cell line expressing human NHE-1, BCECF fluorescence, read-out: NHE1 inhibition IC50
Sequence (P19634 whole entry): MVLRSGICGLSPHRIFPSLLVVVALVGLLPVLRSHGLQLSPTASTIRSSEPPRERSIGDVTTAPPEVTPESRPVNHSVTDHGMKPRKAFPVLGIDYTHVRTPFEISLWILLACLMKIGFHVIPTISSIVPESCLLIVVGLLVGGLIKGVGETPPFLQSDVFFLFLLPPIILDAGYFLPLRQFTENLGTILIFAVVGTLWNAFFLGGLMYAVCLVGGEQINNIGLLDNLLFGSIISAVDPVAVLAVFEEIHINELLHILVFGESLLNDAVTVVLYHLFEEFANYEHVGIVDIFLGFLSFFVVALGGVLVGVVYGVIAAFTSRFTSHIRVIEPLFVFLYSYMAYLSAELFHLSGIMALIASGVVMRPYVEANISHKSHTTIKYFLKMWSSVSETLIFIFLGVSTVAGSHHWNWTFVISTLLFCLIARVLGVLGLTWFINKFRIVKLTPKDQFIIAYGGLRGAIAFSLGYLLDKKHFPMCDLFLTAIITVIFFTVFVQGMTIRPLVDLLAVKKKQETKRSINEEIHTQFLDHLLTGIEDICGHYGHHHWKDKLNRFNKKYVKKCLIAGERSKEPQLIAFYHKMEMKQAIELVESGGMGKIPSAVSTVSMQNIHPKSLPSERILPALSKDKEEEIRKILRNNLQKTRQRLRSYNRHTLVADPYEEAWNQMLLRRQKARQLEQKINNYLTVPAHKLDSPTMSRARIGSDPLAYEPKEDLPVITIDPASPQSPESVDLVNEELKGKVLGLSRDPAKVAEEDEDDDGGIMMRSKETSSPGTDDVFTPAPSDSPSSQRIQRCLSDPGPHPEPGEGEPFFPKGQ
pIC50: −log10 of the molar value. Where a name gives a salt, the structure may show the parent alone.
Response key: met means pIC50 >= 7; not met means pIC50 < 7.

Cc1cc(S(F)(F)(F)(F)F)ccc1C(=O)N=C(N)N	met
Cc1ccc(S(F)(F)(F)(F)F)cc1C(=O)N=C(N)N	met
N=C(N)NC(=O)c1ccc(S(F)(F)(F)(F)F)cc1Cl	not met
N=C(N)NC(=O)c1ccc(S(F)(F)(F)(F)F)cc1Oc1ccc(F)cc1	not met

Given NC(N)=NC(=O)c1cccc(S(F)(F)(F)(F)F)c1 [Example 1, Hydrochloride] , state whether its pIC50 is at least 7.
not met
